# credit: ChEMBL document CHEMBL2385058

# Organism: Homo sapiens
# assay-notes: Induction of tau K19 (unknown origin) disaggregation assessed as decrease in paired helical filament formation measured disassembly-inducing half maxima after 10 days by thioflavin S fluorescence assay in presence of heparin
# maps each entry to its Activity
readout-kind: Activity (µM)

[
  {
    "structure-smiles": "COc1cccc2c1C(=O)c1c(O)c3c(c(O)c1C2=O)C[C@@](O)(C(C)=O)C[C@@H]3O[C@H]1C[C@H](N)[C@H](O)[C@H](C)O1",
    "obs-value": 2.2
  },
  {
    "structure-smiles": "O=C(c1ccccc1)c1ccc(O)c(O)c1O",
    "obs-value": 2.2
  },
  {
    "structure-smiles": "O=C1c2ccc(O)c(O)c2C(=O)c2c(O)ccc(O)c21",
    "obs-value": 2.2
  },
  {
    "structure-smiles": "Cc1cc(O)c2c(c1)C(=O)c1cc(O)cc(O)c1C2=O",
    "obs-value": 2.2
  },
  {
    "structure-smiles": "COc1cccc2c1C(=O)c1c(O)c3c(c(O)c1C2=O)C[C@@](O)(C(=O)CO)C[C@@H]3O[C@H]1C[C@H](N)[C@H](O)[C@H](C)O1",
    "obs-value": 2.2
  }
]
